// data source = PubChem BioAssay (NCI)

Reported log10(TGI) values follow for various molecules
System: NCI-H522 lung
Assay: NCI tumour cell line growth inhibition, 48 h
Where a SMILES comes first, the peptide text is derived from it. The star is where a group is joined. Fmoc = O=C(OCC1c2ccccc2-c2ccccc21)*; Boc = CC(C)(C)OC(=O)*; OtBu = CC(C)(C)O*
Form field - Quantity: TGI; Unit: µM; Scale: log10

C=C1C(=O)c2sccc2C(c2ccc(OC)c(OC)c2)C1COC(C)=O (stereo not drawn) | 0.61
CC(C)(C)OC(=O)CCC(NC(=O)OCC1c2ccccc2-c2ccccc21)C(=O)NC(Cc1c[nH]c2ccccc12)C(=O)NC(CCCCNC(=O)OC(C)(C)C)C(=O)N1CCCC1C(=O)NCC(N)=O (stereo not drawn) (Fmoc-E(OtBu)WK(Boc)PG-NH2; configuration not given here) | 0.62
COC(=O)c1c(O)ccc2c1c1c(n2CCc2ccccc2)C(=O)c2ccccc2C1=O | 1.36
Nc1nonc1-c1nc2cnccc2n1C1CCCCC1 | 1.37

Briefly, log10(TGI) measured for COc1ccccc1N1CCN(CC(O)COc2c(Br)c(Br)c(Br)c3c2OC(C)(C)C3)CC1 (stereo not drawn) : 1.45

For reference, reported log10(TGI) for COc1ccc(C(O)c2cc3c(N)c(C(=O)Nc4ccc(Br)cc4)sc3nc2C)cc1 (stereo not drawn) stands at 1.20

Looking up CC12CCC3(C1)[C@H](CC2=O)C[C@@H](OC(=O)c1ccccc1)C1C(C)(CO)CCC[C@@]13C (stereo partly drawn) , I see its log10(TGI) listed as 1.25

Consider Cc1ccc2ccc(O)cc2c1 . Its measured log10(TGI) is 1.63

* * *

System: CCRF-CEM leukemia
readout_label: GI50

# annotated cases, reported GI50 shown
Cn1cc(C2=C(c3cn(C)c4ccc(OCc5ccccc5)cc34)C(=O)NC2=O)c2ccccc21 | > 25000 nM
C=C1C(=O)c2sccc2C(c2ccc(OC)c(OC)c2)C1COC(C)=O (centres undefined) | 66.1 nM
NC1CCCCC1N.O=NN1CCCCCC1(P(=O)([O-])[O-])P(=O)([O-])[O-].[Na+].[Pt+2] | > 100000 nM
CC/C(=C(\c1ccc(Cl)cc1)c1ccc(OCCN2CCCCC2)cc1)c1ccc(O)cc1 | 1910 nM

GI50 for CCRF-CEM leukemia with input COc1ccccc1N1CCN(CC(O)COc2c(Br)c(Br)c(Br)c3c2OC(C)(C)C3)CC1 (centres undefined) equals 92200 nM

Noted GI50 for Cc1nc2ccccn2c1NC(=O)NNC(=S)Nc1ccc(Cl)cc1 , tested on CCRF-CEM leukemia: > 100000 nM

* * *

Test system: HL-60(TB) leukemia
Assay: NCI tumour cell line growth inhibition, 48 h
Below, each entry is listed alongside its reported TGI.

Look over these answered cases.
CC(=O)OC1(C)C(=O)OC/C2=C/CN(C)CCC(OC(=O)C(O)(C(C)Cl)CC1C)C2=O (centres undefined) | > 100 µM
COc1cccc2c1C(=O)C1(O)CCCCC21 (centres undefined) | > 100 µM
C=C1CCC(O)C/C1=C/C=C1\CCCC2(C)C1CCC2C(C)CCCC(C)C (centres undefined) | > 60.2 µM

get_value(item= O=C(/C=C/c1cccc2ccccc12)c1ccccc1 , readout=TGI) returns > 21.2 µM

Input COC(=O)CCC(NC(=S)N/N=C(\C)c1ccco1)C(=O)OC (centres undefined) . Output TGI: > 100 µM

Entry COC(=O)C(=Cc1ccccc1[N+](=O)[O-])C(=O)OC ; TGI = > 100 µM

The recorded TGI for Cc1cc(C)nc(NS(=O)(=O)c2ccc(NNc3c4ccccc4nc4c(C(=O)Nc5ccc(S(=O)(=O)N=C(N)N)cc5)cccc34)cc2)n1 is > 100 µM

Looking up O/N=C(\C(=N/O)Nc1ccc(-c2ccc(NC(=N/O)/C(=N\O)c3ccccc3)cc2)cc1)c1ccccc1 , I found its TGI recorded as 55.6 µM

Documented TGI of C/C(Cc1ccc(Cl)cc1)=C(\c1ccc(OCCN2CCCCCC2)cc1)c1ccc(OC(=O)c2ccccc2)cc1 : 9.03 µM

* * *

Tested on: NCI-H23 lung
Experiment: NCI tumour cell line growth inhibition, 48 h
The label depends only on TGI: 1.0 if it is at least 10 µM, 0.0 if it is smaller.

As a guide, the following entries are already answered.
N#Cc1nnc2ccccc2c1N | 1.0
O=c1nc2n(c3nsnc13)CCO2 | 1.0
C#Cc1nc(N)c2ncn(C3OC(COS(N)(=O)=O)C(O)C3O)c2n1 (configuration not stated) | 0.0
CCSc1nc2[nH]c(=S)[nH]c(=S)c2c(-c2ccc(OC)c(OC)c2)c1C#N | 1.0

Q: Hello, I need to know if NC(=Nc1ccc(Cl)cc1)c1ccccc1N has measured TGI not below 10 µM. Thanks!
A: 1.0

Q: API: above_or_equal(metric=TGI, cutoff=10 µM) for item C[C@]12CCC3[C@@H](CC[C@@H]4c5nonc5CC[C@]34C)C1CCC2=O (some centres not stated)
A: 1.0

Q: hey, is TGI for this one >= 10 µM? C=C1CC(Cn2cc(C)c(=O)[nH]c2=O)(c2ccc(Cl)cc2)OC1=O (configuration not stated)
A: 1.0

Q: Given the entry CCCOC(=O)c1ccc2c(c1)[N+](=O)C(C(=O)c1ccccc1)=C(C(F)(F)F)[N+]2=O , answer whether its TGI meets or surpasses 10 µM.
A: 0.0

Q: Does the reported TGI for Cc1ccc2cc3c(N)c4c(C)ccc(C)c4nc3nc2c1 fall at or above the 10 µM mark?
A: 1.0

* * *

Listed below: log10(TGI) values for each entry.
System: EKVX NSCLC
Test: NCI tumour cell line growth inhibition, 48 h
// stored as log10 of TGI expressed in µM

Solved entries (count: 6):
CC(C)=C1C(=O)c2c(Cl)sc(Cl)c2C1=O | 1.91
CCCCCCC[CH2][Sn]([Cl])([Cl])[CH2]CCCCCCC | 1.35
COC(=O)C(=Cc1ccccc1[N+](=O)[O-])C(=O)OC | 1.23
Cc1ccc(N=Nc2c(-c3ccccc3)nn(C(=O)CC(=O)Nc3ccc(Cl)cc3)c2-c2ccccc2)cc1 | 1.26
CC1(C)C2CCC1(C)[C@H](O)[C@H]2Nc1cc(C(F)(F)F)cc(C(F)(F)F)c1 (stereo partly specified) | 1.10
Cc1cn(C2CC(Br)C(COC(c3ccccc3)(c3ccccc3)c3ccccc3)O2)c(=O)[nH]c1=O (stereo unspecified) | 1.46

Lab note: O=C1OC(c2ccc(O)c(F)c2)(c2ccc(O)c(F)c2)c2cccc3cccc1c23 gave log10(TGI) of 1.29

Lab book: log10(TGI) of Clc1ccc(-c2ccc(CNCC3CCNCC3)o2)c(-c2ccccc2)c1 noted as 0.47

Kindly note the recorded log10(TGI) for CCOC(=O)c1sc2nc(SC)nc(Nc3ccc4c(c3)OCO4)c2c1N , which is 1.89

* * *

TGI values by entry
Tested on: UACC-62 melanoma
Assay: NCI tumour cell line growth inhibition, 48 h

TGI in this record for COc1cc(/C=C2\N=C(c3ccccc3)N(c3cc4cc(Sc5ccccc5)ccc4[nH]3)C2=O)cc(OC)c1OC : 24.5 µM

* * *

System: OVCAR-3 ovarian
Test: NCI tumour cell line growth inhibition, 48 h
Measured TGI values are reported for all entries that follow.

Field TGI (entry COc1ccc(-c2nnc(-c3nsc4ccccc34)o2)cc1 ) reads 92.6 µM

TGI reading for CC/C(=C(\c1ccc(Cl)cc1)c1ccc(OCCN2CCCCC2)cc1)c1ccc(O)cc1 : 3.63 µM

Lab book: TGI of CC(=O)c1ccc(NC(=O)/C(CC(=O)/C=C/c2ccccc2)=N/NC(N)=S)cc1 noted as > 100 µM

The molecule listed as COC(=O)CCC(NC(=S)N/N=C(\C)c1ccco1)C(=O)OC (configuration not stated) shows TGI equal to > 100 µM

Kindly note the recorded TGI for O/N=C(\C(=N/O)Nc1ccc(-c2ccc(NC(=N/O)/C(=N\O)c3ccccc3)cc2)cc1)c1ccccc1 , which is 40.2 µM

molecule N#Cc1nc(-c2ccccc2C(=O)O)oc1N , TGI observed: > 100 µM

* * *

Test system: HCT-15 colon
Experiment: NCI tumour cell line growth inhibition, 48 h
Where a SMILES comes first, the peptide text is derived from it. Bridges are numbered along the chain shown (N, C = ends). [ ]: non-standard residue; d: D form. The star is where a group is joined. Cya = N[CH](CS(=O)(=O)O)C(=O)O; X49 = CC(C)CCCCCCCC(O)CC(=O)*; GABA = NCCCC(=O)O
readout_label: TGI

GET /value?item= O=C1Cc2ccccc2N1/N=C\c1ccc([N+](=O)[O-])cc1 &field=TGI returns > 100 µM

Entry O=S(CCc1ccccc1)Nc1ccccc1 (stereo not drawn) , TGI reported as > 100 µM

Memo: Clc1ccc(Cl)c(NNc2cc(Cl)ccc2Cl)c1 , reported TGI: > 10 µM

The reported value for Cn1cnc2[nH]c(=O)[nH]c(=S)c21 in terms of TGI is > 100 µM

The compound NS(=O)(=O)c1ccc(N=Nc2ncccc2O)cc1 showed TGI equal to > 100 µM

For this compound ( COc1ccc(C(O)c2cc3c(N)c(C(=O)Nc4ccc(Br)cc4)sc3nc2C)cc1 (stereo not drawn) ), measured TGI is 13.4 µM

Measured TGI of CC(C)CCCCCCCC(O)CC(=O)NC(CS(=O)(=O)O)C(=O)NC(CC(C)C)C(=O)NCCCC(=O)NC(Cc1cnc[nH]1)C(=O)NC(C)C(=O)NC1C(=O)NC(C(C)O)C(=O)NC(Cc2cnc[nH]2)C(=O)NC(C)C(=O)NC(C(C)O)C(=O)OC1C (stereo not drawn) (X49-[Cya]L[GABA]HATTHAT; ester 6-C; configuration not given here) : > 25 µM

So, CC(=O)O[C@H]1C(=O)[C@@]2(C)[C@H]([C@H](OC(=O)c3ccccc3)[C@]3(O)C[C@H](OC(=O)[C@H](OC(=O)OC[C@@H]4COC(C)(C)O4)[C@@H](NC(=O)c4ccccc4)c4ccccc4)C(C)=C1C3(C)C)[C@]1(OC(C)=O)CO[C@@H]1C[C@@H]2O ? Its TGI was > 33.3 µM
